Cited source: BigSolDB 2.1

Assay context: in ethyl formate, 323.15 K
Property: solubility (mole fraction)
Format: numeric value only, no unit, no commentary.

Reported solubility (mole fraction) ( CCCCCCCC(=O)NCC(=O)O ) = 0.0439

====

Assay context: in n-propanol, 308.05 K
Property: solubility (mole fraction)
Format: numeric value only, no unit, no commentary.

Reported solubility (mole fraction) ( CCCCCCCC(=O)NCC(=O)O ) = 0.185

====

Assay context: in methyl acetate, 273.15 K
Property: solubility (mole fraction)
Format: numeric value only, no unit, no commentary.

Reported solubility (mole fraction) ( CCCCCCCC(=O)NCC(=O)O ) = 0.00203

====

Assay context: in n-butanol, 317.65 K
Property: solubility (mole fraction)
Format: numeric value only, no unit, no commentary.

Reported solubility (mole fraction) ( CCCCCCCC(=O)NCC(=O)O ) = 0.268

====

Assay context: in isopropanol, 293.05 K
Property: solubility (mole fraction)
Format: numeric value only, no unit, no commentary.

Reported solubility (mole fraction) ( CCCCCCCC(=O)NCC(=O)O ) = 0.0362
